# test.system: Adenosine receptor A2b (Homo sapiens)
# method.summary: Inhibition of NECA-stimulated cAMP level in CHO cells transfected with human adenosine A2B receptor at 1 uM
# Type: functional, cell-based
measurement.type: inhibition (%)

INSERT INTO assay_data (molecule_smiles, measured_value) VALUES
  ('COc1ccc(-n2nc3c(NC(=O)c4ccccc4)nc4c(N)cccc4n3c2=O)cc1', 17),
  ('COc1ccc(-n2nc3c(N(C(=O)c4ccccc4)C(=O)c4ccccc4)nc4ccccc4n3c2=O)cc1', 13);

I: O=C(c1ccccc1)N(C(=O)c1ccccc1)c1nc2ccccc2n2c(=O)n(-c3ccccc3)nc12
II: COc1ccc(-n2nc3c(NC(=O)C(c4ccccc4)c4ccccc4)nc4ccccc4n3c2=O)cc1
Could you check which of I and II has a smaller value for inhibition? The response must carry the label of the picked entry.
I

---

# test.system: Adenosine receptor A3 (Homo sapiens) (UniProt P0DMS8)
# Sequence (P0DMS8 whole entry): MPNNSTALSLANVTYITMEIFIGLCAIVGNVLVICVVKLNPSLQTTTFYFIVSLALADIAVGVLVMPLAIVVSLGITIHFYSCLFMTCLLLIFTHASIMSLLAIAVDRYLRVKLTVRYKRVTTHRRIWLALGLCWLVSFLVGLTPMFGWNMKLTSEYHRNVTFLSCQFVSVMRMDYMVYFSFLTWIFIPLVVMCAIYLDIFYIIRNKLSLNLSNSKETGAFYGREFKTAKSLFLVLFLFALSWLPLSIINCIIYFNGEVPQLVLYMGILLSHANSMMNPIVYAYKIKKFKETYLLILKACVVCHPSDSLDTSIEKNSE
# method.summary: Inhibition of [125I]AB-MECA binding to human adenosine A3 receptor at 1 uM
measurement.type: inhibition (%)

Known inhibition results, listed for orientation:
INSERT INTO assay_data (molecule_smiles, measurement_type, measured_value) VALUES
  ('COc1ccc(-n2nc3c(NC(C)=O)nc4c([N+](=O)[O-])cccc4n3c2=O)cc1', 'inhibition', 36),
  ('O=C(Nc1nc2ccccc2n2c(=O)n(-c3ccc([N+](=O)[O-])cc3)nc12)C(c1ccccc1)c1ccccc1', 'inhibition', 13);

a: O=C(c1ccccc1)N(C(=O)c1ccccc1)c1nc2c([N+](=O)[O-])cccc2n2c(=O)n(-c3ccccc3)nc12
b: CC(=O)Nc1nc2c([N+](=O)[O-])cccc2n2c(=O)n(-c3ccccc3)nc12
Please let me know which one, a or b , has a lower measured inhibition value. Kindly state the label of the option you pick.
b

---

# test.system: UniProt:P28190
# Sequence (P28190 whole entry): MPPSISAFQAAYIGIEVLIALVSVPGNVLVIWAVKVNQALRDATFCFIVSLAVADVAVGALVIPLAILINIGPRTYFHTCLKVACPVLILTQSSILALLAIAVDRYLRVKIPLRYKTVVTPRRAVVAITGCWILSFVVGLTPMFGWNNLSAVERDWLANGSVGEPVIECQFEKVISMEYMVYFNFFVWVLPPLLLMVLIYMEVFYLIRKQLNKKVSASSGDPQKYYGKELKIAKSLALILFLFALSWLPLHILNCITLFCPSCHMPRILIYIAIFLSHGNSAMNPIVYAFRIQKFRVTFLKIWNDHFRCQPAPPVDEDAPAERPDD
# method.summary: Displacement of [3H]DPCPX from adenosine A1 receptor in bovine brain membranes
# Type: cell membranes
measurement.type: Ki (µM)

Example molecules with recorded Ki:
INSERT INTO measurements (molecule_smiles, unit_info, measured_value) VALUES
  ('Nc1cccc2c1nc(NC(=O)C(c1ccccc1)c1ccccc1)c1nn(-c3ccccc3)c(=O)n12', 'µM', 0.0016),
  ('COc1ccc(-n2nc3c(NC(=O)C(c4ccccc4)c4ccccc4)nc4ccccc4n3c2=O)cc1', 'µM', 0.0072),
  ('COc1ccc(-n2nc3c(NC(C)=O)nc4c(N)cccc4n3c2=O)cc1', 'µM', 0.363),
  ('O=C(c1ccccc1)N(C(=O)c1ccccc1)c1nc2ccccc2n2c(=O)n(-c3ccccc3)nc12', 'µM', 0.03),
  ('COc1ccc(-n2nc3c(NC(=O)C(c4ccccc4)c4ccccc4)nc4c([N+](=O)[O-])cccc4n3c2=O)cc1', 'µM', 0.26);

1: CC(=O)Nc1nc2c([N+](=O)[O-])cccc2n2c(=O)n(-c3ccccc3)nc12
2: Nc1cccc2c1nc(NC(=O)c1ccccc1)c1nn(-c3ccccc3)c(=O)n12
Min Ki? 1 | 2 Write down the label of the entry you select.
1

1: COc1ccc(-n2nc3c(N(C(=O)c4ccccc4)C(=O)c4ccccc4)nc4ccccc4n3c2=O)cc1
2: COc1ccc(-n2nc3c(NC(=O)c4ccccc4)nc4c(N)cccc4n3c2=O)cc1
Higher Ki between 1 and 2 ? Kindly state the label of the option you pick.
2

---

# Tested on: Adenosine receptor A2a (Bos taurus)
# method.summary: Inhibition of [3H]CGS 21680 binding to adenosine A2A receptor in bovine striatal membranes at 10 uM
# experimental.conditions: Striatum, Membrane
measurement.type: inhibition (%)

Worked set:
INSERT INTO assay_data (molecule_smiles, measurement_type, measured_value) VALUES
  ('O=C(Nc1nc2ccccc2n2c(=O)n(-c3ccc([N+](=O)[O-])cc3)nc12)c1ccccc1', 'inhibition', 26),
  ('CC(=O)Nc1nc2c([N+](=O)[O-])cccc2n2c(=O)n(-c3ccccc3)nc12', 'inhibition', 36);

a: Nc1cccc2c1nc(NC(=O)C(c1ccccc1)c1ccccc1)c1nn(-c3ccccc3)c(=O)n12
b: Nc1cccc2c1nc(NC(=O)c1ccccc1)c1nn(-c3ccccc3)c(=O)n12
c: O=C(c1ccccc1)N(C(=O)c1ccccc1)c1nc2c([N+](=O)[O-])cccc2n2c(=O)n(-c3ccccc3)nc12
Order by inhibition, ascending. As an answer, provide the labels arranged in the order called for.
c, a, b
(c: 0%, a: 12%, b: 27.8%)
